Tested on: Trypanosoma brucei gambiense
assay.comment: Antitrypanosomal activity against Trypanosoma brucei gambiense Feo assessed as parasite growth inhibition at 10 uM after 72 hrs by fluorescence assay relative to control
Assay type: functional
measurement.parameters: read-out: GI
Outcome: 1 for inhibition of growth at 10 µM of at least 30%; 0 for anything lower.

COc1ccc(-c2oc3cc(OC)c(OC)c(O)c3c(=O)c2OC)cc1 = 0
COc1c(O)c(OC)c2oc(-c3ccc(O)cc3)c(OC)c(=O)c2c1O = 0
COc1cc(-c2oc3cc(OC)c(OC)c(OC)c3c(=O)c2OC)cc(OC)c1OC = 0
COc1cc(-c2oc3cc(O)c(OC)c(O)c3c(=O)c2OC)cc(O)c1OC = 1
COc1c(-c2ccc(O)cc2)oc2cc(O)cc(O)c2c1=O [ISOKAEMPFERIDE] = 1

###

assay.comment: Cytotoxicity against rat L6 cells assessed as viable cells at 1 uM after 72 hrs by MTT assay relative to control
Type: cell-based
measurement.parameters: read-out: Activity
Exam item: assign yes (1) to entries whose viability at 72 h, 1 µM is below 90% and no (0) to entries at or above 90%. Note that a value of exactly 90% receives no (0).

O=c1c(O)c(-c2ccc(O)cc2)oc2cc(O)cc(O)c12 = no (0)
COc1cc(-c2oc3cc(OC)c(OC)c(O)c3c(=O)c2OC)cc(OC)c1OC = no (0)
COc1c(-c2ccc(O)cc2)oc2cc(O)cc(O)c2c1=O [ISOKAEMPFERIDE] = yes (1)
COc1ccc(-c2oc3cc(OC)cc(O)c3c(=O)c2OC)cc1 = no (0)
COc1ccc(-c2oc3cc(O)c(OC)c(O)c3c(=O)c2OC)cc1OC = no (0)
COc1cc(-c2oc3cc(O)c(OC)c(O)c3c(=O)c2OC)cc(OC)c1OC = no (0)
COc1c(O)cc2oc(-c3ccc(O)cc3)c(OC)c(=O)c2c1O = yes (1)
COc1ccc(-c2oc3cc(OC)c(OC)c(O)c3c(=O)c2OC)cc1 = yes (1)
COc1cc(O)c2c(=O)c(OC)c(-c3ccc(O)cc3)oc2c1 = yes (1)
COc1cc(-c2oc3cc(O)c(OC)c(O)c3c(=O)c2OC)cc(O)c1OC = no (0)
COc1cc(-c2oc3cc(OC)c(OC)c(OC)c3c(=O)c2OC)cc(OC)c1OC = no (0)

###

target.system: Tubulin (Homo sapiens) (UniProt P68371+Q9H4B7+P0DPH7+P68366+Q13509+Q71U36+P04350+Q3ZCM7+P07437+P68363+Q9BQE3+Q6PEY2+Q13885+Q9BVA1+Q9BUF5)
assay.comment: Inhibition of tubulin (unknown origin) polymerization at 30 uM preincubated for 45 mins followed by GTP addition measured after 2 hrs by fluorescence assay relative to control
Type: protein-complex assay
measured.endpoint: inhibition (%)

COc1ccc(-c2oc3cc(O)c(OC)c(O)c3c(=O)c2OC)cc1 [SANTIN] = 100
COc1ccc(-c2oc3cc(O)c(OC)c(O)c3c(=O)c2OC)cc1OC = 75.1
COc1cc(-c2oc3cc(O)c(OC)c(O)c3c(=O)c2OC)cc(OC)c1OC = 69.9
COc1cc(-c2oc3cc(O)c(OC)c(O)c3c(=O)c2OC)cc(O)c1OC = 99

###

assay.comment: Cytotoxicity against rat L6 cells assessed as viable cells at 10 uM after 72 hrs by MTT assay relative to control
Assay type: cell-based
measurement.parameters: read-out: Activity
Measured viability at 72 h, 10 µM values are reported for all entries that follow.
measured.endpoint: viability at 72 h, 10 µM (%)

COc1c(O)cc2oc(-c3ccc(O)cc3)c(OC)c(=O)c2c1O [3,6-DIMETHOXY KAEMPFEROL] = 73.5
COc1ccc(-c2oc3cc(O)c(OC)c(O)c3c(=O)c2OC)cc1 [SANTIN] = 40.8
O=c1c(O)c(-c2ccc(O)cc2)oc2cc(O)cc(O)c12 [KAEMPFEROL] = 100
COc1cc(-c2oc3cc(O)c(OC)c(O)c3c(=O)c2OC)cc(O)c1OC = 44.2
COc1ccc(-c2oc3cc(OC)cc(O)c3c(=O)c2OC)cc1 = 100
COc1ccc(-c2oc3cc(OC)c(OC)c(O)c3c(=O)c2OC)cc1 = 96.5
COc1ccc(-c2oc3cc(O)c(OC)c(O)c3c(=O)c2OC)cc1OC = 94.7
COc1cc(-c2oc3cc(OC)c(OC)c(OC)c3c(=O)c2OC)cc(OC)c1OC = 81.2
COc1cc(O)c2c(=O)c(OC)c(-c3ccc(O)cc3)oc2c1 [KUMATAKENIN] = 38.7
COc1cc(-c2oc3cc(O)c(OC)c(O)c3c(=O)c2OC)cc(OC)c1OC = 78.2
COc1c(O)c(OC)c2oc(-c3ccc(O)cc3)c(OC)c(=O)c2c1O = 80.4
COc1c(-c2ccc(O)cc2)oc2cc(O)cc(O)c2c1=O [ISOKAEMPFERIDE] = 61
CC(=O)Oc1ccc(-c2oc3cc(OC(C)=O)cc(O)c3c(=O)c2OC(C)=O)cc1 = 94.8
COc1cc(-c2oc3cc(OC)c(OC)c(O)c3c(=O)c2OC)cc(OC)c1OC = 53.5
COc1ccc(-c2oc3cc(OC)c(OC)c(OC)c3c(=O)c2OC)cc1 = 93.6

###

Test system: Trypanosoma brucei gambiense
assay.comment: Antitrypanosomal activity against Trypanosoma brucei gambiense Feo assessed as parasite growth inhibition at 10 uM after 72 hrs by fluorescence assay relative to control
Type: functional
measurement.parameters: read-out: GI
measured.endpoint: inhibition of growth at 10 µM (%)

COc1c(O)cc2oc(-c3ccc(O)cc3)c(OC)c(=O)c2c1O = 40.7
COc1cc(-c2oc3cc(O)c(OC)c(O)c3c(=O)c2OC)cc(OC)c1OC = 42.9
COc1ccc(-c2oc3cc(OC)c(OC)c(OC)c3c(=O)c2OC)cc1 = 29.4
COc1ccc(-c2oc3cc(O)c(OC)c(O)c3c(=O)c2OC)cc1 [SANTIN] = 33.2

###

Measured IC50 values are reported for all entries that follow.
Tested on: B16
assay.comment: Cytotoxicity against mouse B16 cells assessed as cell viability after 48 hrs by MTT assay
Format: cell-based
measurement.parameters: B16, 48 h
measured.endpoint: IC50

COc1ccc(-c2oc3cc(OC)c(OC)c(OC)c3c(=O)c2OC)cc1 = > 100 µM
COc1cc(-c2oc3cc(OC)c(OC)c(OC)c3c(=O)c2OC)cc(OC)c1OC = > 100 µM
COc1c(O)c(OC)c2oc(-c3ccc(O)cc3)c(OC)c(=O)c2c1O = > 100 µM
COc1ccc(-c2oc3cc(OC)c(OC)c(O)c3c(=O)c2OC)cc1 = > 100 µM
COc1ccc(-c2oc3cc(OC)cc(O)c3c(=O)c2OC)cc1 = > 100 µM

###

assay.comment: Cytotoxicity against rat L6 cells assessed as viable cells at 1 uM after 72 hrs by MTT assay relative to control
Format: cell-based
measurement.parameters: read-out: Activity
measured.endpoint: viability at 72 h, 1 µM (%)

CC(=O)Oc1ccc(-c2oc3cc(OC(C)=O)cc(O)c3c(=O)c2OC(C)=O)cc1 = 90.2
COc1c(O)c(OC)c2oc(-c3ccc(O)cc3)c(OC)c(=O)c2c1O = 88.4
COc1ccc(-c2oc3cc(O)c(OC)c(O)c3c(=O)c2OC)cc1 [SANTIN] = 90.9
COc1ccc(-c2oc3cc(OC)c(OC)c(OC)c3c(=O)c2OC)cc1 = 88.3
